Target: LmjIPCS (inositol phosphorylceramide synthase from L. major) (Leishmania major, UniProt E9AFX2)
Sequence (E9AFX2 1-338): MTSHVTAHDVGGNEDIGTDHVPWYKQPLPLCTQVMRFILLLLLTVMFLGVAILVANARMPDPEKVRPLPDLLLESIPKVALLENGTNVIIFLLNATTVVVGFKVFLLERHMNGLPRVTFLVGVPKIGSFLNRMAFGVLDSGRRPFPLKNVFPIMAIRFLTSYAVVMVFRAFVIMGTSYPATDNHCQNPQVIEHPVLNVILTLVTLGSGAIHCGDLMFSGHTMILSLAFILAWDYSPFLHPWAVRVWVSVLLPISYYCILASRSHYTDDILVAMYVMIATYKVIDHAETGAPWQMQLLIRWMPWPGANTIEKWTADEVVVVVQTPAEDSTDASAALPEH
Assay: biochemical
Assay type: biochemical
Conditions: read-out: 20mM inhibition LmjIPCS
QUANTITY MEASURED: inhibition at 20000 µM (%)
Give bare numbers, in %.

Look over these answered cases.
Which value of inhibition at 20000 µM has been reported for CC(COc1ccccc1)NC(C)C(O)c1ccc(O)cc1 (centres unmarked) [ISOXSUPRINE] in the records?
32

Continue with CC(C)C[C@H](CN)CC(=O)O [PREGABALIN]
12

Continue with O=C1C[C@@H]2OCC=C3CN4CC[C@]56c7ccccc7N1[C@H]5[C@H]2[C@H]3C[C@H]46 [STRYCHNINE]
3

Continue with C[C@@H]1O[C@@H](OC[C@H]2O[C@@H](Oc3c(-c4ccc(OCCO)c(OCCO)c4)oc4cc(OCCO)cc(O)c4c3=O)[C@H](O)[C@@H](O)[C@@H]2O)[C@H](O)[C@H](O)[C@H]1O [TROXERUTIN]
20

Continue with S=P(N1CC1)(N1CC1)N1CC1 [THIOTEPA]
11

Continue with COC1=C[C@@H]2[C@@H]3Cc4ccc(OC)c(O)c4[C@]2(CCN3C)CC1=O [SINOMENINE]
8

For every listed record, write down its inhibition at 20000 µM.
1. O=C(Cc1cccs1)N[C@@H]1C(=O)N2C(C(=O)[O-])=C(C[n+]3ccccc3)CS[C@H]12 [CEPHALORIDINE]
2. O=P1(N(CCCl)CCCl)NCCCO1 (centres unmarked) [CYCLOPHOSPHAMIDE]
3. CCC(N)C(O)c1ccc(O)c(O)c1 (centres unmarked) [ETHYLNOREPINEPHRINE]
4. CNC(C)(C)Cc1ccccc1 [MEPHENTERMINE]
5. CN(C)[C@@H]1C(O)=C(C(N)=O)C(=O)[C@@]2(O)C(O)=C3C(=O)c4c(O)ccc(Cl)c4[C@@H](O)[C@H]3C[C@@H]12 [DEMECLOCYCLINE]

1. 22
2. -0.87
3. -9
4. 22
5. -2

---

What inhibition at 20000 µM was measured for each of the following?
Target: LmjIPCS (inositol phosphorylceramide synthase from L. major) (Leishmania major, UniProt E9AFX2)
Test: biochemical
Type: biochemical
Details: read-out: 20mM inhibition LmjIPCS
One number for each entry, in %.

Which value of inhibition at 20000 µM has been reported for CN[C@@H]1[C@H](O)[C@H](NC)[C@H]2O[C@@]3(O)C(=O)C[C@@H](C)O[C@H]3O[C@@H]2[C@H]1O [SPECTINOMYCIN] in the records?
19

Continue with CN(C)CCc1c[nH]c2ccc(CS(=O)(=O)N3CCCC3)cc12 [ALMOTRIPTAN]
5

Continue with CC[C@H]1[C@@H]2C[C@H]3[C@@H]4N(C)c5ccccc5[C@]45C[C@@H]([C@H]2[C@H]5O)N3[C@@H]1O [AJMALINE]
23

Continue with NCCc1c[nH]cn1 [HISTAMINE]
4.39

Continue with C=C(C)[C@@H]1CC[C@]2(C(=O)O)CC[C@]3(C)[C@H](CC[C@@H]4[C@@]5(C)CC[C@H](O)C(C)(C)[C@@H]5CC[C@]43C)[C@@H]12 [BETULINIC ACID]
21

For every listed record, write down its inhibition at 20000 µM.
1. CN/C(=N/CCSCc1nc[nH]c1C)NC#N [CIMETIDINE]
2. CC(=O)OCC(CCn1cnc2cnc(N)nc21)COC(C)=O [FAMCICLOVIR]
3. COc1cc(/C=C/C(=O)CC(=O)/C=C/c2ccc(O)c(OC)c2)ccc1O [CURCUMIN]

1: -0.386; 2: 1.36; 3: -10

For every listed record, write down its inhibition at 20000 µM.
1. CC(C)(C)C(=O)C(Oc1ccc(Cl)cc1)n1cncn1 (stereo not shown) [TRIADIMEFON]
2. CN1C(=O)CCS(=O)(=O)C1c1ccc(Cl)cc1 (stereo not shown) [CHLORMEZANONE]
3. NCCc1c[nH]c2ccccc12 [TRYPTAMINE]
4. Cc1[nH]ccc2c1[nH]c1cc(=O)ccc12 [HARMOL]
5. O=C1C=C2C=C[C@@H]3C[C@@]2(O1)[C@H]1CCCCN31 [SECURININE]
6. CN1CCCN=C1/C=C/c1cccs1
7. N#C/C(=C\c1cccc(O)c1)C(=O)O [alpha-CYANO-3-HYDROXYCINNAMIC ACID]
8. CCOC(=O)[C@H](CCc1ccccc1)N[C@@H](C)C(=O)N1Cc2ccccc2C[C@H]1C(=O)O

1. 17
2. -1.07
3. 27
4. 15
5. 11
6. 20
7. 8
8. 5.45

---

What 20mM inhibition LmjIPCS was measured for each of the following?
Target: LmjIPCS (inositol phosphorylceramide synthase from L. major) (Leishmania major)
Assay: biochemical
Format: biochemical
Remember to quote the unit after the number.

Which value of 20mM inhibition LmjIPCS has been reported for CC1=CC(=O)c2ccccc2C1=O in the records?
43%

Continue with CCOc1nc2cccc(C(=O)OC(C)OC(=O)OC3CCCCC3)c2n1Cc1ccc(-c2ccccc2-c2nn[nH]n2)cc1 (centres unmarked)
11%

Continue with NS(=O)(=O)c1cc2c(cc1Cl)N=CNS2(=O)=O [CHLOROTHIAZIDE]
51%

Continue with Cc1cccc(CN2CCN(C(c3ccccc3)c3ccc(Cl)cc3)CC2)c1 (centres unmarked)
78%

// switching to the query compound
Which value of 20mM inhibition LmjIPCS has been reported for COc1ccccc1OCCNCC(O)COc1cccc2[nH]c3ccccc3c12 (centres unmarked) in the records?
73%

---

Biological target: LmjIPCS (inositol phosphorylceramide synthase from L. major) (Leishmania major, UniProt E9AFX2)
Sequence (E9AFX2 1-338): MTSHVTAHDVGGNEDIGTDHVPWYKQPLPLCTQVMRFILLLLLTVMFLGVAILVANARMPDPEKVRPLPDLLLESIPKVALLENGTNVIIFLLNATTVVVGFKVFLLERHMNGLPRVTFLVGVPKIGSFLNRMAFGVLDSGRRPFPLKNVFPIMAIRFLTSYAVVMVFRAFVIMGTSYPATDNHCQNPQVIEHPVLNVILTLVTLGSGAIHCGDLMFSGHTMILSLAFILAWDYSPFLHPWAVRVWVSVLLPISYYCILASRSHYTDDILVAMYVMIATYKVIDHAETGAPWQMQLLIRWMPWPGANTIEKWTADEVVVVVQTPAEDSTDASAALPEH
Experiment: biochemical
Assay type: biochemical
Criterion: IC50 strictly under 4 µM. Met: met. Not met: not met.

Look over these answered cases.
Input CCOC(=O)C1=C(COCCN)NC(C)=C(C(=O)OC)C1c1ccccc1Cl (stereo not shown) [amlodipine 2, amlodipine, reference compound] ; condition: IC50 strictly below 4 µM. Does it hold?
met

Continue with CC(NCCC(c1ccccc1)c1ccccc1)c1ccccc1 (stereo not shown) [fendiline 6, fendiline, reference compound]
not met

Continue with CCCCCCCCNC(C)C(O)c1ccc(SC(C)C)cc1 (stereo not shown) [suloctidil 15, suloctidil, reference compound]
met

Continue with O=c1[nH]c2ccccc2n1C1CCN(CCCC(c2ccc(F)cc2)c2ccc(F)cc2)CC1 [pimozide 10, pimozide, reference compound]
not met

Next:
Input CN(C)CCCN1c2ccccc2Sc2ccc(Cl)cc21 [chlorpromazine 3, chlorpromazine, reference compound] ; condition: IC50 strictly below 4 µM. Does it hold?
not met

Continue with CN1CCN(CCCN2c3ccccc3Sc3ccc(C(F)(F)F)cc32)CC1 [trifluoperazine 16, trifluoperazine, reference compound]
not met

Continue with Cc1nnc(NS(=O)(=O)c2ccc(N)cc2)s1 [sulfamethizole 14, sulfamethizole, reference compound]
not met

---

Molecular target: LmjIPCS (inositol phosphorylceramide synthase from L. major) (Leishmania major, UniProt E9AFX2)
Assay: biochemical
Assay type: biochemical
Details: NINDS set screen, single concentration printed as 20mM
QUANTITY MEASURED: 20mM inhibition LmjIPCS (%)
Answers are plain numbers, in %.

Look over these answered cases.
Which value of 20mM inhibition LmjIPCS has been reported for CCn1cc(C(=O)O)c(=O)c2cc(F)c(N3CCNCC3)nc21 in the records?
56

Continue with Cc1cc2cc3c(C)cc(=O)oc3c(C)c2o1
42

// switching to the query molecule
Which value of 20mM inhibition LmjIPCS has been reported for C#CCCCCCCCCCCCC(=O)CC(O)COC(C)=O (stereo not drawn) [AVOCADYNONE ACETATE] in the records?
67
